Target: acylase from Rhodococcus equi Ac6 (Rhodococcus (subgen. Prescottella) equi)
Construct: N-terminus […]
Sequence (A0A3S5Y3Z2 1-487): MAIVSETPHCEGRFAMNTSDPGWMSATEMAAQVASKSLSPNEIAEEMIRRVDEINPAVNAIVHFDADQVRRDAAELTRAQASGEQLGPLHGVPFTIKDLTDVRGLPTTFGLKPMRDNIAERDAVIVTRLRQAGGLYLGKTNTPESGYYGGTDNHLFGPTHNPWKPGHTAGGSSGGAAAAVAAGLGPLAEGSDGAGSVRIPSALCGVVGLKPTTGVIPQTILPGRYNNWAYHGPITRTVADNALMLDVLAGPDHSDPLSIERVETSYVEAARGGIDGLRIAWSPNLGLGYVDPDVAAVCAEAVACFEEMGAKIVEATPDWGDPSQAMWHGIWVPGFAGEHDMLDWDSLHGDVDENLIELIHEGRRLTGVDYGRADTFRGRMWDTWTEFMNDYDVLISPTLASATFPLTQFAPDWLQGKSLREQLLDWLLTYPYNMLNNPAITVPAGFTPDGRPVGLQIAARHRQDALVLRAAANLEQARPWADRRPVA
Test: Enzymatic hydrolysis of racemic amides with partially purified acylase from Rhodococcus equi Ac6
Format: biochemical
Details: formed amine, analysed as acetamide
What e.e. (S)-Amine was measured for each of the following?
Give bare numbers.

Worked examples follow.
CCC(NC(C)=O)c1ccccc1 (racemic) [Substrate 4a] | 98.5
CC(=O)NC(C)CCc1ccccc1 (racemic) [Substrate 9a] | 92.1
CC(=O)NC1CCc2ccccc21 (racemic) [Substrate 5a] | 88.2

Please give e.e. (S)-Amine, item by item, for the list that follows.
1. CC(=O)NC(C)c1ccccc1 (racemic) [Substrate 1a, N-acetyl 1-phenylethylamine]
2. CC(=O)NC(C)c1ccc2ccccc2c1 (racemic) [Substrate 7a]
3. CC(=O)NC(C)c1ccc2c(c1)OCO2 (racemic) [Substrate 8a]

1: 96.8; 2: 97.4; 3: 97.8

----------
Target: UniProt A0A3S5Y3Z2
Experiment: Activity of the Ac6-acylase in the presence of potential enzyme activators and inhibitors
Assay type: biochemical
Details: compound 10 mM; values in brackets: precipitates formed during the assay; none = 100
Readout label: Relative activity (%)
Give bare numbers, in %.

Worked examples follow.
[Ca+2].[Cl-].[Cl-] | 83
[Cl-].[Cl-].[Co+2] | 83
[Cl][Ni][Cl] | 10

Please give Relative activity (%), item by item, for the list that follows.
1. [Cl][Pb][Cl]
2. [Cl][Fe]([Cl])[Cl]
3. [Cl-].[Cl-].[Zn+2]
4. O=S(=O)(F)Cc1ccccc1 [Phenylmethyl-sulfonyl fluoride]
5. [Ba+2].[Cl-].[Cl-]
6. [Cl-].[Cl-].[Mg+2]
7. [Cl][Cu][Cl]

1. 99
2. 92
3. 47
4. 0
5. 99
6. 99
7. 41

Please give Relative activity (%), item by item, for the list that follows.
1. [Cl][Cd][Cl]
2. [Cl][Mn][Cl]

1. 38
2. 87

Field request: Relative activity (%) | item: `[Cl][V]([Cl])[Cl]`
94

----------
Tested on: Rhodococcus globerulus K1/1 acylase
Type: biochemical
Details: compound 1 mM; none = 100
Readout label: Relative activity (%)
Give bare numbers, in %.

Worked examples follow.
[Cl-].[Cl-].[Co+2] [CoCl2] | 97
[Cl-].[Cl-].[Zn+2] [ZnCl2] | 66
[Cl-].[Cl-].[Mg+2] [MgCl2] | 101
[Cl][Cu][Cl] [CuCl2] | 66
NC(=O)CI [Iodoacetamide] | 104

Please give Relative activity (%), item by item, for the list that follows.
1. [Cl][Fe]([Cl])[Cl] [FeCl3]
2. [Cl][Ni][Cl] [NiCl2]
3. O[C@H](CS)[C@H](O)CS (racemic) [Dithiothreitol]
4. N[C@@H]1CONC1=O [D-cycloserine]
5. O=C(O)CC(O)(CC(=O)O)C(=O)O [Citrate]
6. [Ca+2].[Cl-].[Cl-] [CaCl2]
7. [Cl][Mn][Cl] [MnCl2]
8. OCCS [Mercaptoethanol]

1. 101
2. 87
3. 112
4. 104
5. 113
6. 89
7. 94
8. 106

Field request: Relative activity (%) | item: O=C(O)c1cc[c]([Hg+])cc1.[OH-] [p-hydroxy-mercuribenzoate]
89

----------
What Relative activity (%) was measured for each of the following?
System: AcR5b-acylase
Experiment: Activity of the AcR5b-acylase in the presence of potential enzyme activators and inhibitors
Type: biochemical, Arthrobacter aurescens AcR5b
Conditions: compound 1 mM, 30 min preincubation, Tris-HCl pH 8; none = 100
Numbers only, in %.

NC(=O)CI [Iodoacetamide] | 96

Please give Relative activity (%), item by item, for the list that follows.
1. [Cl][Ni][Cl]
2. [Cl][V]([Cl])[Cl]
3. [Cl-].[Cl-].[Co+2]

14
96
26

----------
System: AcR5b-acylase
Test: Activity of the AcR5b-acylase in the presence of potential enzyme activators and inhibitors
Type: biochemical, Arthrobacter aurescens AcR5b
Conditions: compound 10 mM, 30 min preincubation; values printed in brackets: precipitates formed; none = 100
What Relative activity (%) was measured for each of the following?
One number for each entry, in %.

Worked examples follow.
[Cl][Ni][Cl] | 0
O[C@H](CS)[C@H](O)CS (racemic) | 5.4
O=C(O)CC(O)(CC(=O)O)C(=O)O [Citrate] | 100
[Cl][Cu][Cl] | 0
[Cl-].[Cl-].[Mg+2] | 93

Please give Relative activity (%), item by item, for the list that follows.
1. [Ca+2].[Cl-].[Cl-]
2. [Cl][V]([Cl])[Cl]
3. [Cl-].[Cl-].[Zn+2]

1: 88; 2: 106; 3: 0

Please give Relative activity (%), item by item, for the list that follows.
1. [Cl][Pb][Cl]
2. [Cl][Fe]([Cl])[Cl]
3. OCCS
4. [Cl][Mn][Cl]

9
132
69
60

Please give Relative activity (%), item by item, for the list that follows.
1. [Cl][Cd][Cl]
2. [Cl-].[Cl-].[Co+2]
3. NC(=O)CI [Iodoacetamide]
4. [Ba+2].[Cl-].[Cl-]

0
15
29
89

----------
System: AcR5b-acylase
Assay: Stability of the AcR5b-acylase during freezing, with and without cryoprotective agents
Format: physicochemical, Arthrobacter aurescens AcR5b
Settings: AcR5b-acylase frozen 9 days at -80° C. with the cryoprotective agent of the label (label AcR5b-acylase = none)
Readout label: Relative activity (%)
Give bare numbers, in %.

Worked examples follow.
OC[C@H]1O[C@@](CO)(O[C@H]2O[C@H](CO)[C@@H](O)[C@H](O)[C@H]2O)[C@@H](O)[C@@H]1O [10% Saccharose, Saccharose] | 92
OCC(O)CO [5% Glycerol, Glycerol] | 97
N.N.O=S(=O)(O)O [10% (NH4)2 SO4, (NH4)2 SO4] | 83

Now consider a different compound.
Field request: Relative activity (%) | item: OCC(O)CO [50% Glycerol, Glycerol]
90

----------
What Relative activity (%) was measured for each of the following?
Target: Ac6-acylase (Rhodococcus (subgen. Prescottella) equi, UniProt A0A3S5Y3Z2)
Test: Activity of the Ac6-acylase in the presence of potential enzyme activators and inhibitors
Type: biochemical
Settings: compound 1 mM; 20 mM (S)-N-acetyl-1-phenylethylamine, Tris-HCl pH 8, 120 min; none = 100
Answers are plain numbers, in %.

Worked examples follow.
O=S(=O)(F)Cc1ccccc1 [Phenylmethyl-sulfonyl fluoride] | 0
[Cl][Mn][Cl] | 87
[Cl][Cu][Cl] | 88
[Ca+2].[Cl-].[Cl-] | 90
O[C@H](CS)[C@H](O)CS (racemic) | 103

Please give Relative activity (%), item by item, for the list that follows.
1. [Cl][V]([Cl])[Cl]
2. [Ba+2].[Cl-].[Cl-]
3. [Cl][Cd][Cl]
4. [Cl][Fe]([Cl])[Cl]
5. [Cl-].[Cl-].[Co+2]
6. O=C(O)CC(O)(CC(=O)O)C(=O)O [Citrate]
7. [Cl-].[Cl-].[Mg+2]
8. [Cl-].[Cl-].[Zn+2]

1: 89; 2: 95; 3: 85; 4: 101; 5: 69; 6: 106; 7: 90; 8: 68

----------
System: acylase from Arthrobacter aurescens Ac5R
Test: Enzymatic hydrolysis of racemic amides with highly purified acylase from Arthrobacter aurescens Ac5R
Assay type: biochemical
Settings: unconverted amide, chiral HPLC
Readout label: e.e. (S)-Amide
Give bare numbers.

Worked examples follow.
CC(=O)NC1CCOc2ccccc21 (racemic) [Substrate 6a] | 46.6
CCC(NC(C)=O)c1ccccc1 (racemic) [Substrate 4a] | 87.4
CC(=O)NC1CCc2ccccc21 (racemic) [Substrate 5a] | 96.1
CC(=O)NC(C)c1cccc(C#N)c1 (racemic) [Substrate 2a] | 82.4

Now consider a different molecule.
Field request: e.e. (S)-Amide | item: CC(=O)NC(C)c1ccc2c(c1)OCO2 (racemic) [Substrate 8a]
82.4

----------
Molecular target: acylase from Rhodococcus equi Ac6 (Rhodococcus (subgen. Prescottella) equi)
Construct: N-terminus […]
Assay: Enzymatic hydrolysis of racemic amides with partially purified acylase from Rhodococcus equi Ac6
Type: biochemical
Conditions: enantioselectivity of the hydrolysis
Readout label: Selectivity E
Give bare numbers.

Worked examples follow.
CC(=O)NC1CCc2ccccc21 (racemic) [Substrate 5a] | 65
CC(=O)NC(C)CCc1ccccc1 (racemic) [Substrate 9a] | 230
CC(=O)NC(C)c1ccc2c(c1)OCO2 (racemic) [Substrate 8a] | 280
CC(=O)NC(C)c1ccc2ccccc2c1 (racemic) [Substrate 7a] | 88

Now consider a different molecule.
Field request: Selectivity E | item: CC(=O)NC(C)c1ccccc1 (racemic) [Substrate 1a, N-acetyl 1-phenylethylamine]
350

----------
Tested on: AcR5b-acylase
Assay: Activity of the AcR5b-acylase in the presence of potential enzyme activators and inhibitors
Format: biochemical, Arthrobacter aurescens AcR5b
Details: preincubated with 1 mM metal cation, then 10 mM EDTA for 30 min
Readout label: Relative activity (%), EDTA reactivation
Numbers only, in %.

Worked examples follow.
[Cl-].[Cl-].[Co+2] | 91
[Cl][Ni][Cl] | 85
[Cl][Cd][Cl] | 79
[Cl][Pb][Cl] | 102
[Cl-].[Cl-].[Zn+2] | 75

Now consider a different compound.
Query for AcR5b-acylase: what Relative activity (%), EDTA reactivation does the record show for `[Cl][Cu][Cl]` ?
86
